Where do the numbers come from? From ChEMBL document CHEMBL5058577.

Test system: U2OS
ASSAY SUMMARY: Multiplex assay against U2OS
Type: toxicity, cell-based
MEASUREMENT PARAMETERS: human, 48 h, 10 µM, compound concentration 10 uM, replicate 1
MEASURED QUANTITY: Population Apoptotic (%)
Give the value, in units of %, as a plain number.

Answered examples (3):
Incoming: So what's the measured Population Apoptotic (%) for this one? "CCCn1c(=O)c2[nH]c(C3CCCC3)nc2n(CCC)c1=O"
Outgoing: 77

Incoming: So what's the measured Population Apoptotic (%) for this one? "N#Cc1c(N)nc(SCc2csc(-c3ccc(Cl)cc3)n2)c(C#N)c1-c1ccc(OCCO)cc1"
Outgoing: 86

Incoming: So what's the measured Population Apoptotic (%) for this one? "CCCC(CCC)C(=O)O"
Outgoing: 91

Others:
Incoming: So what's the measured Population Apoptotic (%) for this one? "C[C@H]1[C@H]2CC[C@H]3[C@@H]4CC=C5C[C@@H](N(C)C)CC[C@]5(C)[C@H]4CC[C@]23CN1C"
Outgoing: 89

Incoming: So what's the measured Population Apoptotic (%) for this one? "CC1(COc2ccc3c(c2)ncn3-c2ccc3cccc(N4CCC(N)CC4)c3n2)COC1"
Outgoing: 100

Incoming: So what's the measured Population Apoptotic (%) for this one? "O=C1COc2nccc(-c3ccccc3F)c2CN1Cc1cc(C(F)(F)F)cc(C(F)(F)F)c1"
Outgoing: 61

Incoming: So what's the measured Population Apoptotic (%) for this one? CSc1ccccc1N1CCN(CCCCCC(=O)NC2CCCc3ccccc32)CC1.Cl (stereo not drawn)
Outgoing: 98

Incoming: So what's the measured Population Apoptotic (%) for this one? CCCN1CCC[C@@H]2Cc3n[nH]cc3C[C@H]21.Cl [QUINPIROLE HYDROCHLORIDE]
Outgoing: 86

Incoming: So what's the measured Population Apoptotic (%) for this one? "C[C@@H]1C[C@H]2[C@@H]3CCC4=CC(=O)C=C[C@]4(C)[C@@]3(F)[C@@H](O)C[C@]2(C)[C@@]1(O)C(=O)CO"
Outgoing: 92

Incoming: So what's the measured Population Apoptotic (%) for this one? "COc1cc(C(=O)N(CCCc2ccccc2)Cc2ccc(CC(=O)O)cc2)cc(OC)c1C"
Outgoing: 93

Incoming: So what's the measured Population Apoptotic (%) for this one? "CN(C)c1ccnc2sc3c(=O)n(N4CCCCCC4)cnc3c12"
Outgoing: 68

Incoming: So what's the measured Population Apoptotic (%) for this one? "COc1c(C)cc(NC(=O)c2nn(Cc3ccc(F)cc3)c3c2CN(C(=O)c2ccc[nH]2)C[C@]3(C)C(N)=O)cc1C"
Outgoing: 84

Incoming: So what's the measured Population Apoptotic (%) for this one? "N[C@@]1(C(=O)O)CO[C@H]2[C@H](C(=O)O)[C@H]21"
Outgoing: 92

Incoming: So what's the measured Population Apoptotic (%) for this one? "CCOc1c2c(c(OCC)c3ncccc13)CN(c1ccc(CS(=O)(=O)NC(=O)Cc3ccccc3OC)cc1C)C2=O"
Outgoing: 91

Incoming: So what's the measured Population Apoptotic (%) for this one? "O=C(O)c1cc2ccccc2c(Cc2c(O)c(C(=O)O)cc3ccccc23)c1O"
Outgoing: 96

Incoming: So what's the measured Population Apoptotic (%) for this one? "Cc1ccc(/C(=C\CN2CCCC2)c2ccccn2)cc1"
Outgoing: 86

Incoming: So what's the measured Population Apoptotic (%) for this one? COc1ccc2c(c1)C(C(=O)N(Cc1ccc(N(C)C)cc1)c1ccc(C(C)C)cc1)CCC2.Cl (stereo not drawn)
Outgoing: 73

Incoming: So what's the measured Population Apoptotic (%) for this one? Cc1ccc(C(C)(O)c2nc3ccccc3s2)c(C)c1 (stereo not drawn)
Outgoing: 96
